B1: FAM164C (parent)
chain: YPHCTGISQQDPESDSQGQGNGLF

variants of: B1; test: protein stability index of a GFP-peptide fusion (GPS, HEK-293T) (PSI 1-6); higher = more stable; details: c terminus: a fixed tail appended;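 also: lentivirally expressed fusions sorted by FACS into six bins by GFP to DsRed ratio, PSI derived from sequencing read proportions per bin multiplied by bin number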
Exercise: state measured protein stability index for each of the variants provided.
Answer with a number only.

// sample YPHCTGISQQDPESDSQGQGGGLF [N21G] , its protein stability index was 3.5

// sample YYHCTGISQQDPESDSQGQGNGLF [P2Y] , its protein stability index was 4.22

// sample YPHCTGISQQDPESDSQGQGNCLF [G22C] , its protein stability index was 3.16

// sample YPHCVGISQQDPESDSQGQGNGLF [T5V] , its protein stability index was 3.18

// sample YLHCTGISQQDPESDSQGQGNGLF [P2L] , its protein stability index was 3.96

// sample YPHCTGISQQPPESDSQGQGNGLF [D11P] , its protein stability index was 3.85

// sample YPHCTGISMQDPESDSQGQGNGLF [Q9M] , its protein stability index was 3.49

// sample YPHCTGISQQDPESDSMGQGNGLF [Q17M] , its protein stability index was 3.8

// sample YPHCTGISQQWPESDSQGQGNGLF [D11W] , its protein stability index was 2.32

// sample YPNCTGISQQDPESDSQGQGNGLF [H3N] , its protein stability index was 4.09

// sample YPHCTGISQQDPESDSQGQGNGLE [F24E] , its protein stability index was 5

// sample YPHCTGISQQDPESDSQGQTNGLF [G20T] , its protein stability index was 3.33

// sample YPHATGISQQDPESDSQGQGNGLF [C4A] , its protein stability index was 3.92

// sample YPHCTGISQQDPEFDSQGQGNGLF [S14F] , its protein stability index was 2.73

// sample YPHCTGISQQDYESDSQGQGNGLF [P12Y] , its protein stability index was 3.54

// sample YPHCTPISQQDPESDSQGQGNGLF [G6P] , its protein stability index was 2.25

// sample YPHCTGISQQHPESDSQGQGNGLF [D11H] , its protein stability index was 3.12

// sample YPHCTGISQQDPESDSQHQGNGLF [G18H] , its protein stability index was 3.74

// sample YPHCTGISQQMPESDSQGQGNGLF [D11M] , its protein stability index was 3.41

// sample YPHCTGISQQDPESDSQGQDNGLF [G20D] , its protein stability index was 4.39

// sample YPHCTGISQQDPESDSQGDGNGLF [Q19D] , its protein stability index was 4.1

// sample YPHCTGISQQDIESDSQGQGNGLF [P12I] , its protein stability index was 3.51

// sample YNHCTGISQQDPESDSQGQGNGLF [P2N] , its protein stability index was 4.54

// sample YPHCTGISQQDPESDSQGQGNGEF [L23E] , its protein stability index was 5.27

// sample YPHCKGISQQDPESDSQGQGNGLF [T5K] , its protein stability index was 3.55

// sample YPHCTGISQQDPESDSIGQGNGLF [Q17I] , its protein stability index was 3.42

// sample YPHCTGISQQDPESDMQGQGNGLF [S16M] , its protein stability index was 3.62

// sample YPHCTGISQQTPESDSQGQGNGLF [D11T] , its protein stability index was 3.17

// sample YPHCTGSSQQDPESDSQGQGNGLF [I7S] , its protein stability index was 3.86

// sample YPTCTGISQQDPESDSQGQGNGLF [H3T] , its protein stability index was 4.12

// sample YPHCTGISQQDPESDSQGQVNGLF [G20V] , its protein stability index was 3.44

// sample YPHCTGISQQDPESDSTGQGNGLF [Q17T] , its protein stability index was 3.64

// sample YPHCTGISQRDPESDSQGQGNGLF [Q10R] , its protein stability index was 3.54

// sample YPHCTGISQQDPESDSQGQGNGLN [F24N] , its protein stability index was 5.06

// sample YPHCTGISQQDPERDSQGQGNGLF [S14R] , its protein stability index was 3.79

// sample YPHCTGISQQDPESDSQQQGNGLF [G18Q] , its protein stability index was 3.72

// sample YPHCTGISQQDPESDSSGQGNGLF [Q17S] , its protein stability index was 3.79

// sample YPHCTGISQQDPESDSQGQGNGGF [L23G] , its protein stability index was 4.99

// sample YPLCTGISQQDPESDSQGQGNGLF [H3L] , its protein stability index was 3.37

// sample YPHCTGISQQDPETDSQGQGNGLF [S14T] , its protein stability index was 3.71

// sample YPHCTGISQQDPESDSQGQGNFLF [G22F] , its protein stability index was 2.94

// sample YPHCTGISQQDPESDSQGQGNGLT [F24T] , its protein stability index was 5.13

// sample YPHCTGISQQDPESDSQGQGNGLL [F24L] , its protein stability index was 4.77

// sample YPHCTGISQQDPESLSQGQGNGLF [D15L] , its protein stability index was 2.8

// sample YDHCTGISQQDPESDSQGQGNGLF [P2D] , its protein stability index was 5.09

// sample YPHCTGISQQDPEIDSQGQGNGLF [S14I] , its protein stability index was 3.25

// sample YPHCTGISQQDPESDSQGQGNGIF [L23I] , its protein stability index was 3.97

// sample YPHCNGISQQDPESDSQGQGNGLF [T5N] , its protein stability index was 3.32

// sample YPHCTGISQQDPESDSQGQGNGFF [L23F] , its protein stability index was 3.15

// sample YPHCTGISQQDPECDSQGQGNGLF [S14C] , its protein stability index was 3.54

// sample YPHCTGISQQDPESDSQGQGNGLP [F24P] , its protein stability index was 4.64

// sample YPHCSGISQQDPESDSQGQGNGLF [T5S] , its protein stability index was 3.53

// sample YPHCTGWSQQDPESDSQGQGNGLF [I7W] , its protein stability index was 1.51

// sample YPHCCGISQQDPESDSQGQGNGLF [T5C] , its protein stability index was 1.9

// sample YPHCTGISQQDPEPDSQGQGNGLF [S14P] , its protein stability index was 4.28

// sample YPHCTGISQQDPESDSQGQGNALF [G22A] , its protein stability index was 3.78

// sample YPHKTGISQQDPESDSQGQGNGLF [C4K] , its protein stability index was 4.39

// sample YPHCTGISQQDPESDSQGRGNGLF [Q19R] , its protein stability index was 3.51

// sample YPHCTGISQQDPESDSQGQGNILF [G22I] , its protein stability index was 3.22

// sample YPHCTGISQQDPESDSQGQYNGLF [G20Y] , its protein stability index was 2.03

// sample YPHCTGISQQDPESDKQGQGNGLF [S16K] , its protein stability index was 3.61

// sample YPHCTGISQQDPESDSQGQGCGLF [N21C] , its protein stability index was 3.65

// sample YPHCTGYSQQDPESDSQGQGNGLF [I7Y] , its protein stability index was 2.64

// sample YPHCIGISQQDPESDSQGQGNGLF [T5I] , its protein stability index was 3.34

// sample YPHCTGISQQDPESDNQGQGNGLF [S16N] , its protein stability index was 4.18

// sample YPHCTGISQQFPESDSQGQGNGLF [D11F] , its protein stability index was 2.96

// sample YPHCTGISQQDEESDSQGQGNGLF [P12E] , its protein stability index was 4.08

// sample YTHCTGISQQDPESDSQGQGNGLF [P2T] , its protein stability index was 3.35

// sample YPHCTGISQQDPGSDSQGQGNGLF [E13G] , its protein stability index was 3.38

// sample YPHCTGISQQDPESDSQGQHNGLF [G20H] , its protein stability index was 3.08

// sample YPHCTGISQQDPESDSQVQGNGLF [G18V] , its protein stability index was 3.32

// sample APHCTGISQQDPESDSQGQGNGLF [Y1A] , its protein stability index was 5.44

// sample YPHCTGISQQDPKSDSQGQGNGLF [E13K] , its protein stability index was 3.28

// sample YPHCTGISQQCPESDSQGQGNGLF [D11C] , its protein stability index was 3.15

// sample YPHCTGISQQDPESDSQGQGNNLF [G22N] , its protein stability index was 2.91

// sample YPHCTMISQQDPESDSQGQGNGLF [G6M] , its protein stability index was 3.34

// sample YPHCTGISQQDPESDQQGQGNGLF [S16Q] , its protein stability index was 3.8

// sample YPHCTGISQQDPESDSQGQGNGHF [L23H] , its protein stability index was 4.89

// sample QPHCTGISQQDPESDSQGQGNGLF [Y1Q] , its protein stability index was 5.36

// sample YPHCTGISQQDPESDGQGQGNGLF [S16G] , its protein stability index was 3.71

// sample YPHCTGISQQDPEVDSQGQGNGLF [S14V] , its protein stability index was 4.3

// sample YPHCTGISQQDPESDSQGQQNGLF [G20Q] , its protein stability index was 3.79

// sample YPHCTGISDQDPESDSQGQGNGLF [Q9D] , its protein stability index was 3.91

// sample YPHCTGISQQDPESDSQGQGWGLF [N21W] , its protein stability index was 2.35

// sample YPHCTGISQQDPESDSQGQPNGLF [G20P] , its protein stability index was 3.59

// sample YPHCTGISQQDPESDSQAQGNGLF [G18A] , its protein stability index was 3.83

// sample YPHCTGISAQDPESDSQGQGNGLF [Q9A] , its protein stability index was 4.06

// sample YPHCTGISQQDPESDSQYQGNGLF [G18Y] , its protein stability index was 3

// sample YPHCTGISQQDPESDSQGQGEGLF [N21E] , its protein stability index was 4.86

// sample LPHCTGISQQDPESDSQGQGNGLF [Y1L] , its protein stability index was 5.44

// sample YHHCTGISQQDPESDSQGQGNGLF [P2H] , its protein stability index was 2.9

Source of measurements: the supplement of paper PMC10567573
